Items are presented alongside their recorded percent response of DMSO control.
- Measurement Protocol: modulators of CIT2-GFP expression in yeast, primary screen, S. cerevisiae, GFP fusion, multiplex flow cytometry (AID 1870);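 further: barcoded CIT2-GFP strain pooled with four other GFP strains with rapamycin as positive control; median GFP fluorescence per well over plate mean of DMSO wells so 100% = DMSO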
- Test Context: 3 h, at 10 µM, stronger effect = higher value
Peptide text beside a SMILES is read from it. * marks the point of attachment. Boc = CC(C)(C)OC(=O)*; OBn = c1ccc(CO*)cc1

[
  {
    "Compound": "CN(Cc1ccccc1)CC(O)COc1ccc(CNCc2cccnc2)cc1 (stereo unspecified)",
    "percent response of DMSO control [%]": 103
  },
  {
    "Compound": "COC(=O)C1=C(C)NC(C)=C(C(=O)OC)C1c1ccccc1[N+](=O)[O-]",
    "percent response of DMSO control [%]": 102
  },
  {
    "Compound": "C[C@]12CCC(=O)C=C1CC[C@@H]1[C@@H]2C(=O)C[C@@]2(C)[C@H]1CC[C@]2(O)C(=O)CO",
    "percent response of DMSO control [%]": 108
  },
  {
    "Compound": "CCCCNc1cc(C(=O)O)cc(S(N)(=O)=O)c1Oc1ccccc1",
    "percent response of DMSO control [%]": 97.9
  },
  {
    "Compound": "CC(=O)O[C@H]1C(=O)[C@@]2(C)[C@H]([C@H](OC(=O)c3ccccc3)[C@]3(O)C[C@H](OC(=O)[C@H](O)C(NC(=O)c4ccccc4)c4ccccc4)C(C)=C1C3(C)C)[C@]1(OC(C)=O)CO[C@@H]1C[C@@H]2O (stereo partly specified)",
    "percent response of DMSO control [%]": 103
  },
  {
    "Compound": "CN(C)C(=O)C12CCC(C)(c3nc4ccccc4nc31)C2(C)C (stereo unspecified)",
    "percent response of DMSO control [%]": 106
  },
  {
    "Compound": "O=C(/C=C/c1ccc(Cl)cc1)NCCc1ccccc1",
    "percent response of DMSO control [%]": 97.9
  },
  {
    "Compound": "CCOC(=O)Cc1c(C)nc(N)[nH]c1=O",
    "percent response of DMSO control [%]": 102
  },
  {
    "Compound": "Cc1cc(C(C)(C)C)cc(C)c1CC1=NCCN1",
    "percent response of DMSO control [%]": 96.6
  },
  {
    "Compound": "Cc1ccc(NCCC(=O)c2ccccc2)cc1Cl",
    "percent response of DMSO control [%]": 110
  },
  {
    "Compound": "O=C(O)c1cc(-c2ccc3c(c2)OCO3)nc2ccc(Br)cc12",
    "percent response of DMSO control [%]": 82.2
  },
  {
    "Compound": "CC(C)CC(NC(=O)C(NC(=O)OC(C)(C)C)C(C)C)C(=O)NC(CCC(=O)OCc1ccccc1)C(N)=O (stereo not drawn) (Boc-Val-Leu-Glu(OBn)-NH2; configuration not given here)",
    "percent response of DMSO control [%]": 95.9
  },
  {
    "Compound": "O=C(CCCN1CCC(O)(c2ccc(Cl)cc2)CC1)c1ccc(F)cc1",
    "percent response of DMSO control [%]": 91.9
  },
  {
    "Compound": "CN(C)CCOc1ccc(Cl)cc1C(C)(C)C",
    "percent response of DMSO control [%]": 105
  },
  {
    "Compound": "COC(=O)c1ccc(CC(=O)c2ccc(O)cc2O)o1",
    "percent response of DMSO control [%]": 91.3
  },
  {
    "Compound": "COc1cccc(C2CCCN2Cc2nc(CCC(C)C)no2)c1 (stereo unspecified)",
    "percent response of DMSO control [%]": 103
  },
  {
    "Compound": "CCOc1cc2oc(=O)c3c(c2cc1Cl)CCC3",
    "percent response of DMSO control [%]": 102
  },
  {
    "Compound": "C=C(C)COc1ccc(-c2n[nH]c(C)c2-c2ccc(OC)cc2)c(O)c1",
    "percent response of DMSO control [%]": 95.9
  },
  {
    "Compound": "CCOC(=O)c1ccccc1NC(=O)c1ccc(F)cc1",
    "percent response of DMSO control [%]": 103
  },
  {
    "Compound": "CN1C(=O)C(O)(CC(=O)c2ccccc2O)c2cc(Br)ccc21 (stereo unspecified)",
    "percent response of DMSO control [%]": 109
  },
  {
    "Compound": "Nc1nnc(-c2cccc(Cl)c2Cl)c(N)n1",
    "percent response of DMSO control [%]": 103
  }
]
